test system: HeLa cells; experiment: Confocal laser scanning microscopy and degradation study with PA library and HeLa cells; assay type: cell-based; conditions: HeLa cells; 3 d relative to 30 min
Where a SMILES comes first, the peptide text is derived from it. The star is where a group is joined. Palmitoyl = CCCCCCCCCCCCCCCC(=O)*
ASSAY_READOUT: Degradability / % (rel. to initial particles > 10 µm^2)

COMPOUND: CCCCCCCCCCCCCCCC(=O)N[C@H](C(=O)N[C@H](C(=O)N[C@@H](C)C(=O)N[C@@H](C)C(=O)N[C@@H](Cc1c[nH]cn1)C(=O)N[C@@H](Cc1c[nH]cn1)C(=O)N[C@@H](Cc1c[nH]cn1)C(N)=O)C(C)C)C(C)C [Pat24, C16-VVAAHHH-NH2] (Palmitoyl-VVAAHHH-NH2)
OBS_VALUE: 26%
--
COMPOUND: CCCCCCCCCCCCCCCC(=O)N[C@@H](CC(C)C)C(=O)N[C@@H](CC(C)C)C(=O)N[C@@H](CC(C)C)C(=O)N[C@@H](CCCCN)C(=O)N[C@@H](CCCCN)C(N)=O [Pat23, C16-LLLKK-NH2] (Palmitoyl-LLLKK-NH2)
OBS_VALUE: 27%
--
COMPOUND: CCCCCCCCCCCCCCCC(=O)N[C@@H](CC(C)C)C(=O)N[C@@H](CC(N)=O)C(=O)NCC(=O)NCC(=O)N[C@H](C(=O)N[C@@H](CCCCN)C(=O)N[C@@H](CCCCN)C(N)=O)C(C)C [Pat19, C16-LNGGVKK-NH2] (Palmitoyl-LNGGVKK-NH2)
OBS_VALUE: 48%
--
COMPOUND: CCCCCCCCCCCCCCCC(=O)N[C@H](C(=O)N[C@H](C(=O)N[C@H](C(=O)N[C@@H](C)C(=O)N[C@@H](C)C(=O)N[C@@H](C)C(=O)N[C@@H](CCCCN)C(=O)N[C@@H](CCCCN)C(=O)N[C@@H](CCCCN)C(N)=O)C(C)C)C(C)C)C(C)C [PA1] (Palmitoyl-VVVAAAKKK-NH2)
OBS_VALUE: 94%

====

Test system: HeLa cells
Assay: Confocal laser scanning microscopy and degradation study with PA library and HeLa cells
Format: cell-based
Settings: d3 relative to d0
Protocol: In general, the procedure for determine whether a PA is degraded or not, is conducted by confocal laser scanning microscopy of Proteostat stained PAs which are added to Hela cells (2 µg peptide added to 20.000 cells). Microscopy is conducted at day 0 (d0, after 30 min of incubation) and at day 3 (d3, after 72 h of incubation). The number of aggregates >10 µm^2 is counted via 3D object counter in imaged in an area of 1008 µm × 1008 µm. […]
Where a SMILES comes first, the peptide text is derived from it. The star is where a group is joined. Fmoc = O=C(OCC1c2ccccc2-c2ccccc21)*; Palmitoyl = CCCCCCCCCCCCCCCC(=O)*; Lauroyl = CCCCCCCCCCCC(=O)*; Nonanoyl = CCCCCCCCC(=O)*
aggregate number decreases / degraded in presence of HeLa cells within 3 days overview
ASSAY_READOUT: aggregate number decreases / degraded in presence of HeLa cells within 3 days (%)

COMPOUND: CCCCCCCCCCCCCCCC(=O)N[C@@H](C)C(=O)N[C@@H](CC(C)C)C(=O)N[C@@H](C)C(=O)N[C@@H](C)C(=O)NCC(=O)N[C@@H](CCCCN)C(=O)N[C@@H](CCCCN)C(N)=O [Pat20, C16-ALAAGKK-NH2] (Palmitoyl-ALAAGKK-NH2)
OBS_VALUE: 87
--
COMPOUND: CCCCCCCCCCCCCCCC(=O)N[C@H](C(=O)N[C@H](C(=O)N[C@@H](CCC(N)=O)C(=O)N[C@@H](CCCCN)C(=O)N[C@H](C(=O)N[C@@H](CCCCN)C(N)=O)[C@@H](C)CC)[C@@H](C)CC)[C@@H](C)CC [Pat15, C16-IIQKIK-NH2] (Palmitoyl-IIQKIK-NH2)
OBS_VALUE: 28
--
COMPOUND: CCCCCCCCC(=O)N[C@H](C(=O)N[C@H](C(=O)N[C@H](C(=O)N[C@@H](C)C(=O)N[C@@H](C)C(=O)N[C@@H](C)C(=O)N[C@@H](CCCCN)C(=O)N[C@@H](CCCCN)C(=O)N[C@@H](CCCCN)C(N)=O)C(C)C)C(C)C)C(C)C [Pat8] (Nonanoyl-VVVAAAKKK-NH2)
OBS_VALUE: 78
--
COMPOUND: CCCCCCCCCCCCCCCC(=O)N[C@@H](CC(C)C)C(=O)N[C@@H](CC(N)=O)C(=O)NCC(=O)NCC(=O)N[C@H](C(=O)N[C@@H](CCCCN)C(=O)N[C@@H](CCCCN)C(N)=O)C(C)C [Pat19, C16-LNGGVKK-NH2] (Palmitoyl-LNGGVKK-NH2)
OBS_VALUE: 48
--
COMPOUND: CC(C)[C@H](NC(=O)OCC1c2ccccc2-c2ccccc21)C(=O)N[C@H](C(=O)N[C@H](C(=O)N[C@@H](C)C(=O)N[C@@H](C)C(=O)N[C@@H](C)C(=O)N[C@@H](CCCCN)C(=O)N[C@@H](CCCCN)C(=O)N[C@@H](CCCCN)C(N)=O)C(C)C)C(C)C [Pat12] (Fmoc-VVVAAAKKK-NH2)
OBS_VALUE: 28
--
COMPOUND: CCCCCCCCCCCCCCCC(=O)N[C@@H](C)C(=O)N[C@H](C(=O)N[C@@H](C)C(=O)N[C@@H](CCCCN)C(=O)N[C@@H](CCCCN)C(=O)N[C@@H](CCCCN)C(N)=O)C(C)C [Pat21, C16-AVAKKK-NH2] (Palmitoyl-AVAKKK-NH2)
OBS_VALUE: 84
--
COMPOUND: CCCCCCCCCCCCCCCC(=O)N[C@@H](CC(C)C)C(=O)N[C@@H](CC(C)C)C(=O)N[C@@H](CC(C)C)C(=O)N[C@@H](CCCCN)C(=O)N[C@@H](CCCCN)C(N)=O [Pat23, C16-LLLKK-NH2] (Palmitoyl-LLLKK-NH2)
OBS_VALUE: 27
--
COMPOUND: CCCCCCCCCCCC(=O)N[C@H](C(=O)N[C@H](C(=O)N[C@H](C(=O)N[C@@H](C)C(=O)N[C@@H](C)C(=O)N[C@@H](C)C(=O)N[C@@H](CCCCN)C(=O)N[C@@H](CCCCN)C(=O)N[C@@H](CCCCN)C(N)=O)C(C)C)C(C)C)C(C)C [Pat7] (Lauroyl-VVVAAAKKK-NH2)
OBS_VALUE: 32

====

Measured β-sheet amount accompanies every entry in the list below.
test: ATR-FT-IR determination of β-sheet content; type: physicochemical; conditions: 1 mg/mL in PBS lyophilized; integral at 1630 cm^-1 relative to 1650-1700 cm^-1
Where a SMILES comes first, the peptide text is derived from it. The star is where a group is joined. Palmitoyl = CCCCCCCCCCCCCCCC(=O)*
ASSAY_READOUT: β-sheet amount (%)

MOLECULE: CCCCCCCCCCCCCCCC(=O)NCC(=O)N[C@@H](CCCCN)C(=O)N[C@H](C(=O)NCC(=O)N[C@@H](CO)C(=O)N[C@@H](CCCCN)C(N)=O)C(C)C [Pat30, C16-GKVGSK-NH2] (Palmitoyl-GKVGSK-NH2)
ASSAY_READOUT: β-sheet amount
OBS_VALUE: 41

MOLECULE: CCCCCCCCCCCCCCCC(=O)N[C@@H](CCCCN)C(=O)N[C@H](C(=O)N[C@H](C(=O)N[C@@H](CO)C(=O)N[C@@H](Cc1ccccc1)C(=O)N[C@@H](CCCCN)C(N)=O)[C@@H](C)CC)[C@@H](C)CC [Pat32, C16-KIISFK-NH2] (Palmitoyl-KIISFK-NH2)
ASSAY_READOUT: β-sheet amount
OBS_VALUE: 46

====

experiment: ATR-FT-IR determination of β-sheet content; type: physicochemical; settings: 1 mg/mL in PBS lyophilized; integral at 1630 cm^-1 relative to 1650-1700 cm^-1
Where no end group is shown, it is not given here. The star is where a group is joined. 2‑naphthylmethyl = c1ccc2cc(C*)ccc2c1; Palmitoyl = CCCCCCCCCCCCCCCC(=O)*
Class key for β-sheet amount values: interval 1 = under 10%, interval 2 = from 10% up to 30%, interval 3 = 30% and over

SUBSTANCE: VVAAHHH-NH2 [Pat43, VVAAHHH-NH2]
DISCRETE_LABEL: interval 1
--
SUBSTANCE: GKVGSK-NH2 [Pat49, GKVGSK-NH2]
DISCRETE_LABEL: interval 1
--
SUBSTANCE: ALAAGKK-NH2 [Pat39, ALAAGKK-NH2]
DISCRETE_LABEL: interval 1
--
SUBSTANCE: C16-ester-SVVVAAAKKK-NH2 (S(Palmitoyl)VVVAAAKKK-NH2; N-terminus assumed; SMILES CCCCCCCCCCCCCCCC(=O)OC[C@H](N)C(=O)N[C@H](C(=O)N[C@H](C(=O)N[C@H](C(=O)N[C@@H](C)C(=O)N[C@@H](C)C(=O)N[C@@H](C)C(=O)N[C@@H](CCCCN)C(=O)N[C@@H](CCCCN)C(=O)N[C@@H](CCCCN)C(N)=O)C(C)C)C(C)C)C(C)C) [Pat1]
DISCRETE_LABEL: interval 3
--
SUBSTANCE: AGGRVK-NH2 [Pat37, AGGRVK-NH2]
DISCRETE_LABEL: interval 1
--
SUBSTANCE: RRWQWR-NH2 [Pat41, RRWQWR-NH2]
DISCRETE_LABEL: interval 1
--
SUBSTANCE: AQAKAK-NH2 [Pat35, AQAKAK-NH2]
DISCRETE_LABEL: interval 2
--
SUBSTANCE: Nap-VVVAAAKKK-NH2 ({2‑naphthylmethyl}-VVVAAAKKK-NH2; SMILES CC(C)[C@H](NCc1ccc2ccccc2c1)C(=O)N[C@H](C(=O)N[C@H](C(=O)N[C@@H](C)C(=O)N[C@@H](C)C(=O)N[C@@H](C)C(=O)N[C@@H](CCCCN)C(=O)N[C@@H](CCCCN)C(=O)N[C@@H](CCCCN)C(N)=O)C(C)C)C(C)C) [Pat13]
DISCRETE_LABEL: interval 3
--
SUBSTANCE: AKAVGK-NH2 [Pat50, AKAVGK-NH2]
DISCRETE_LABEL: interval 3
--
SUBSTANCE: AVAKKK-NH2 [Pat40, AVAKKK-NH2]
DISCRETE_LABEL: interval 2
--
SUBSTANCE: C16-thioester-CVVVAAAKKK-NH2 (C(Palmitoyl)VVVAAAKKK-NH2; N-terminus assumed; SMILES CCCCCCCCCCCCCCCC(=O)SC[C@H](N)C(=O)N[C@H](C(=O)N[C@H](C(=O)N[C@H](C(=O)N[C@@H](C)C(=O)N[C@@H](C)C(=O)N[C@@H](C)C(=O)N[C@@H](CCCCN)C(=O)N[C@@H](CCCCN)C(=O)N[C@@H](CCCCN)C(N)=O)C(C)C)C(C)C)C(C)C) [Pat3]
DISCRETE_LABEL: interval 3
--
SUBSTANCE: NFYLQVNKINK-NH2 [Pat46]
DISCRETE_LABEL: interval 3
--
SUBSTANCE: IIQKIK-NH2 [Pat34, IIQKIK-NH2]
DISCRETE_LABEL: interval 3
--
SUBSTANCE: LNGGVKK-NH2 [Pat38, LNGGVKK-NH2]
DISCRETE_LABEL: interval 1
--
SUBSTANCE: WEALKK-NH2 [Pat36, WEALKK-NH2]
DISCRETE_LABEL: interval 3
--
SUBSTANCE: KGVPGVGK-NH2 [Pat44]
DISCRETE_LABEL: interval 2
--
SUBSTANCE: KIISFK-NH2 [Pat51, KIISFK-NH2]
DISCRETE_LABEL: interval 3
--
SUBSTANCE: KYIHQNYTKALAGKLV-NH2 [Pat45]
DISCRETE_LABEL: interval 3
--
SUBSTANCE: C16-disulfide-CVVVAAAKKK-NH2 (not fully specified (residue 1); printed as C16-disulfide-CVVVAAAKKK-NH2) [Pat2]
DISCRETE_LABEL: interval 3

The reported numbers originate from patent EP4458977A1.
